# Tested on: B16 melanoma
# Assay Info: In vivo antitumor activity against B16 melanoma in mice (Q4Dx3, ip)
# Set-up: species or system mouse (male BDF1)
# Cond: B16, 10 mg/kg/day, Q4D × 3, ip
Catalogue of compounds with associated T/C % of MST
Measured Parameter: T/C % of MST

>>> experimental_value("COC1C(N)C(OC2C(Oc3cccc4c(O)c5c(=O)oc6ccc(C)c7c(=O)oc(c34)c5c67)OC(C)C3OC4(CCCCC4)OC32C)OC(C)C1O (stereo not drawn)")
"200%"
>>> experimental_value("COC1C(N)C(OC2C(Oc3cccc4c(O)c5c(=O)oc6ccc(C)c7c(=O)oc(c34)c5c67)OC(C)C(OC3CCCCO3)C2(C)O)OC(C)C1O (stereo not drawn) [Compound 8, 4'-O-Tetrahydropyranylelsamicin A]")
"≥ 330%"
>>> experimental_value("COC1C(N)C(OC2C(Oc3cccc4c(O)c5c(=O)oc6ccc(C)c7c(=O)oc(c34)c5c67)OC(C)C3OC(c4ccccc4)OC32C)OC(C)C1O (stereo not drawn)")
"186%"
>>> experimental_value("COC1C(N)C(OC2C(Oc3cccc4c(O)c5c(=O)oc6ccc(C)c7c(=O)oc(c34)c5c67)OC(C)C3OC(C)(C)OC32C)OC(C)C1O (stereo not drawn)")
"82%"
>>> experimental_value("COC1OC2C(C)OC(Oc3cccc4c(O)c5c(=O)oc6ccc(C)c7c(=O)oc(c34)c5c67)C(OC3OC(C)C(O)C(OC)C3N)C2(C)O1 (stereo not drawn)")
"≥ 333%"
>>> experimental_value("COC1C(N)C(OC2C(Oc3cccc4c(O)c5c(=O)oc6ccc(C)c7c(=O)oc(c34)c5c67)OC(C)C(O)C2(C)O)OC(C)C1O (stereo not drawn)")
"≥ 298%"

====

Catalogue of compounds with associated IC50
# Tested on: B16-F10 melanoma cells
# Assay Info: cells
# Cond: Mus musculus, B16-F10, 72 h, read-out: Cytotoxicity IC50
Measured Parameter: IC50 (µg/mL)

>>> experimental_value("COC1C(N)C(OC2C(Oc3cccc4c(O)c5c(=O)oc6ccc(C)c7c(=O)oc(c34)c5c67)OC(C)C(OC3CCCCO3)C2(C)O)OC(C)C1O (stereo not drawn) [Compound 8, 4'-O-Tetrahydropyranylelsamicin A]")
0.04
>>> experimental_value("COC1C(N)C(OC2C(Oc3cccc4c(O)c5c(=O)oc6ccc(C)c7c(=O)oc(c34)c5c67)OC(C)C3OC4(CCCCC4)OC32C)OC(C)C1O (stereo not drawn)")
0.04
>>> experimental_value("COC1C(N)C(OC2C(Oc3cccc4c(O)c5c(=O)oc6ccc(C)c7c(=O)oc(c34)c5c67)OC(C)C3OC(C)(C)OC32C)OC(C)C1O (stereo not drawn)")
0.025

====

# System: B16 melanoma
# Assay Info: In vivo antitumor activity against B16 melanoma in mice (Q4Dx3, ip)
# Set-up: species or system mouse (male BDF1)
# Cond: B16, 0.1 mg/kg/day, Q4D × 3, ip
Measured Parameter: T/C % of MST (%)

>>> experimental_value("COC1C(N)C(OC2C(Oc3cccc4c(O)c5c(=O)oc6ccc(C)c7c(=O)oc(c34)c5c67)OC(C)C3OC(c4ccccc4)OC32C)OC(C)C1O (centres unmarked)")
121
>>> experimental_value("COC1OC2C(C)OC(Oc3cccc4c(O)c5c(=O)oc6ccc(C)c7c(=O)oc(c34)c5c67)C(OC3OC(C)C(O)C(OC)C3N)C2(C)O1 (centres unmarked)")
120
>>> experimental_value("COC1C(N)C(OC2C(Oc3cccc4c(O)c5c(=O)oc6ccc(C)c7c(=O)oc(c34)c5c67)OC(C)C(OC3CCCCO3)C2(C)O)OC(C)C1O (centres unmarked) [Compound 8, 4'-O-Tetrahydropyranylelsamicin A]")
133
>>> experimental_value("COC1C(N)C(OC2C(Oc3cccc4c(O)c5c(=O)oc6ccc(C)c7c(=O)oc(c34)c5c67)OC(C)C(O)C2(C)O)OC(C)C1O (centres unmarked)")
116
>>> experimental_value("COC1C(N)C(OC2C(Oc3cccc4c(O)c5c(=O)oc6ccc(C)c7c(=O)oc(c34)c5c67)OC(C)C3OC(C)(C)OC32C)OC(C)C1O (centres unmarked)")
105

Source listed as patent US5229371A.
